Origin of the recorded values: patent US20260217708A1

# SYSTEM_NAME: system Xc^− (Homo sapiens, UniProt Q9UPY5)
# Sequence (Q9UPY5 whole entry): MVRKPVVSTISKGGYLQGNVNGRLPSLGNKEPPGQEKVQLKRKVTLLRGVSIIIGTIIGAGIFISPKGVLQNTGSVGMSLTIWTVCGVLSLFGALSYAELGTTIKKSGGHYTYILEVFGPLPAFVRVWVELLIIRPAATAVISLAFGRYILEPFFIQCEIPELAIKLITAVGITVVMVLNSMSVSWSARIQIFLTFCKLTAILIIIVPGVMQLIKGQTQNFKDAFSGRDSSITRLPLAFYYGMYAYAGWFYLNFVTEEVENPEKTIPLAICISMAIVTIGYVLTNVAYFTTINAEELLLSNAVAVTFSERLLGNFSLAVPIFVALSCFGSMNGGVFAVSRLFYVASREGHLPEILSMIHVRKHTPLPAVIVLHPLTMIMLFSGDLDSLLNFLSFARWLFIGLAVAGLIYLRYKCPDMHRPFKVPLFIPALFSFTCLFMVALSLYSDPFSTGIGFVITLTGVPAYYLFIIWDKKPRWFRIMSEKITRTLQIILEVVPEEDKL
# Sequence (P08195 102-630 partner): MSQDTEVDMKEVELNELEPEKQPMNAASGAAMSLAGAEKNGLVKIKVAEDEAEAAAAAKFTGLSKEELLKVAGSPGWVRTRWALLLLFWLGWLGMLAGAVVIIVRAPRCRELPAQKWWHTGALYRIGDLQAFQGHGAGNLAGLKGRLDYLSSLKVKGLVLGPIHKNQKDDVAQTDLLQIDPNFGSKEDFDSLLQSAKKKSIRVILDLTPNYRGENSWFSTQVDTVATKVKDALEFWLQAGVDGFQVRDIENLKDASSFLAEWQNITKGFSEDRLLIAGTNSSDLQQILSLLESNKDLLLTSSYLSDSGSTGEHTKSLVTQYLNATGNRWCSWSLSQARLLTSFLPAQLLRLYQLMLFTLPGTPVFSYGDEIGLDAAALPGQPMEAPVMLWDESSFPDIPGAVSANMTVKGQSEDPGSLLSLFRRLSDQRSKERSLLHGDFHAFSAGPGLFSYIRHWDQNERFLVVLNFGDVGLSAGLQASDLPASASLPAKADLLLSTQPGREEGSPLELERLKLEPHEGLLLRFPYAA
# PROTOCOL_NOTES: Cystine-induced glutamate release assay
# Format: cell-based
# Set-up: endogenous in cells; host or cells: H4 cells
# RUN_CONDITIONS: H4 cells, sodium-free HEPES buffer, 50 μM L-Cystine, 2 hours, Amplex Red glutamate readout; read-out: pIC50 Cystine-induced glutamate release assay (converted)
# Method: The effect of compounds of Formula (I) on the system Xc^− functionality was examined in two independent cell assays: (i) measurement of cystine-induced glutamate release; and (ii) measurement of [^14C]L-Cystine uptake. […] In this assay, the medium is devoid of sodium to prevent the transport of glutamate by sodium-dependent excitatory amino acid transporters (EAATs). […] Fluorescence intensity was measured by EnVision microplate reader (PerkinElmer).
MEASUREMENT_KIND: IC50

Field: example entries. Status: answers known.
COMPOUND | MEASUREMENT_KIND | OBSERVED_VALUE
Cc1cc2c(c(Cl)n1)-c1ccnnc1C(C)C(=O)N2CC(=O)Nc1ccc(C(F)(F)F)cc1 (stereo not shown) [#173] | IC50 | 15.8 to 39.8 nM
CC1C(=O)N(CC(=O)Nc2ccc(C(F)F)cc2)c2cc(C3(F)CC3)oc(=O)c2-c2cccnc21 (single isomer, unassigned) [#365] | IC50 | < 15.8 nM
Cc1cc2c(cn1)-c1ncccc1CC(=O)N2CC(=O)Nc1ccc(C(F)(F)F)cc1 [#12] | IC50 | 100 to 501 nM

Field: next compound
According to the records, this compound Cc1cc2c(c(F)n1)-c1cccnc1C(CO)C(=O)N2CC(=O)Nc1ccc(C(F)F)cc1 (single isomer, unassigned) [#222] displays IC50 of 15.8 to 39.8 nM
